# METHOD: Pharmacokinetics of glimepiride and M1 in plasma, glimepiride alone versus with Ojeok-san, clinical crossover study
# CONDITION: male, human, plasma, oral, AUC0–48 h, glimepiride 4 mg qd + OJS 4.35 g tid; mean ± SD; N = 13

{"MOLECULE": "CCC1=C(C)CN(C(=O)NCCc2ccc(S(=O)(=O)NC(=O)N[C@H]3CC[C@H](C)CC3)cc2)C1=O [Glimepiride]", "AUC(0-t) / ng·h/mL": 1160}

====

# METHOD: Pharmacokinetics of glimepiride and M1 in plasma, glimepiride alone versus with Ojeok-san, clinical crossover study
# CONDITION: male, human, plasma, oral, 4 mg

{"COMPOUND": "CCC1=C(C)CN(C(=O)NCCc2ccc(S(=O)(=O)NC(=O)N[C@H]3CC[C@H](C)CC3)cc2)C1=O [Glimepiride]", "AUC(0-inf)": "1380 ng·h/mL"}

====

# METHOD: Pharmacokinetics of glimepiride and M1 in plasma, glimepiride alone versus with Ojeok-san, clinical crossover study
# CONDITION: male, human, plasma, oral, 4 mg, t1/2,0–48 h, glimepiride 4 mg qd alone; mean ± SD; N = 16
MEASUREMENT_NAME: half-life (h)

{"COMPOUND": "CCC1=C(C)CN(C(=O)NCCc2ccc(S(=O)(=O)NC(=O)N[C@H]3CC[C@H](C)CC3)cc2)C1=O [Glimepiride]", "MEASUREMENT_NAME": "half-life", "UNIT_OF_MEASURE": "h", "ENDPOINT_VALUE": 8.73}

====

# METHOD: Pharmacokinetics of glimepiride and M1 in plasma, glimepiride alone versus with Ojeok-san, clinical crossover study
# CONDITION: male, human, plasma, oral, 4 mg, AUC0–48 h, glimepiride 4 mg qd alone; mean ± SD; N = 16

{"COMPOUND": "CCC1=C(C)CN(C(=O)NCCc2ccc(S(=O)(=O)NC(=O)N[C@H]3CC[C@H](C)CC3)cc2)C1=O [Glimepiride]", "AUC(0-t) (ng·h/mL)": 1300}

====

# METHOD: Pharmacokinetics of glimepiride and M1 in plasma, glimepiride alone versus with Ojeok-san, clinical crossover study
# CONDITION: male, human, plasma, oral, 4 mg

{"COMPOUND": "CCC1=C(C)CN(C(=O)NCCc2ccc(S(=O)(=O)NC(=O)N[C@H]3CC[C@H](C)CC3)cc2)C1=O [Glimepiride]", "UNIT_OF_MEASURE": "ng/mL", "Cmax": 251}

====

# METHOD: Pharmacokinetics of glimepiride and M1 in plasma, glimepiride alone versus with Ojeok-san, clinical crossover study
# CONDITION: male, human, plasma, oral, 4 mg, AUC0–24 h, glimepiride 4 mg qd alone; mean ± SD; N = 16

{"COMPOUND": "CCC1=C(C)CN(C(=O)NCCc2ccc(S(=O)(=O)NC(=O)N[C@H]3CC[C@H](C)CC3)cc2)C1=O [Glimepiride]", "AUC(0-t)": "1280 ng·h/mL"}

====

# METHOD: Pharmacokinetics of glimepiride and M1 in plasma, glimepiride alone versus with Ojeok-san, clinical crossover study
# CONDITION: male, human, plasma, oral, AUC0–24 h, glimepiride 4 mg qd + OJS 4.35 g tid; mean ± SD; N = 13
MEASUREMENT_NAME: AUC(0-t) (ng·h/mL)

{"MOLECULE": "CCC1=C(C)CN(C(=O)NCCc2ccc(S(=O)(=O)NC(=O)N[C@H]3CC[C@H](C)CC3)cc2)C1=O [Glimepiride]", "ENDPOINT_VALUE": 1130}
